- experimental_system: T1, cynoNectin4-mFc (cyno, UniProt A0A2K5WES1 32-349)
- T1 construct: Immobilized on the SPR chip; also called cyanoNectin4; not shown: mFc (mouse Fc)
- T1 sequence: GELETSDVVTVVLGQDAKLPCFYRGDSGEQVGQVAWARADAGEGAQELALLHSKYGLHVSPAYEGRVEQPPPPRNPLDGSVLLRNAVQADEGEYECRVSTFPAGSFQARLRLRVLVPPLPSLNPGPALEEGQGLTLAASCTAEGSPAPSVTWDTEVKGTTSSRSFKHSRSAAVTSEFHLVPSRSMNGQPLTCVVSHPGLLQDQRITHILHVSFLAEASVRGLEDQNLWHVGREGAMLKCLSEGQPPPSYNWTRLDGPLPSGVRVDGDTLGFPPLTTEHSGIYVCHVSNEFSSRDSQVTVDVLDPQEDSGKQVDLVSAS
- experimental_details: SPR, cynoNectin4-mFc immobilized, pH 6.0
property_label: pKd
Schema: pKd number; meaning minus log10 of the concentration expressed in molar units.

pKd in this record for BAP-143-00-03 (antibody, V domains shown, Used as a conjugate with a linker payload (CAB ADC)) VH: EVQLVESGGGLVQPGGSLRLSCAASGFTFSSYNMNWVRQAPGKGLEWVSYISSSSSTIYYADSVKGRFTISRDNAKNSLSLQMNSLRDEDTAVYYCARAYYYGMDVWGQGTTVTVSS VL: DIQMTQSPSSVSASVGDRVTITCRASQGISGWLAWYQQKPGKAPKFLIYAASTLQSGVPSRFSGSGSGTDFTLTISSLQPEDFATYYCQQANSFPDTFGGGTKVEIK : 8.63

For BAP-143-00-02 (antibody, V domains shown, Used as a conjugate with a linker payload (CAB ADC)) VH: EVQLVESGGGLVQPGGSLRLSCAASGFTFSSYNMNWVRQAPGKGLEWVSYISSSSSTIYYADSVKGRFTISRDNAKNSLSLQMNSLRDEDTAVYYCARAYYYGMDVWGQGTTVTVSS VL: DIQMTQSPSSVSASVGDRVTITCRASQGISGWLAWYQQKPGKAPKFLIYAASTLQSGVPSRFSGSGSGTDFTLTISSLQPEDFATYYCQQANSEPPTFGGGTKVEIK the binder record lists pKd as 8.26
